# Measured target: IRAK4 (Homo sapiens (Human))
# Sequence (Q9NWZ3 whole entry): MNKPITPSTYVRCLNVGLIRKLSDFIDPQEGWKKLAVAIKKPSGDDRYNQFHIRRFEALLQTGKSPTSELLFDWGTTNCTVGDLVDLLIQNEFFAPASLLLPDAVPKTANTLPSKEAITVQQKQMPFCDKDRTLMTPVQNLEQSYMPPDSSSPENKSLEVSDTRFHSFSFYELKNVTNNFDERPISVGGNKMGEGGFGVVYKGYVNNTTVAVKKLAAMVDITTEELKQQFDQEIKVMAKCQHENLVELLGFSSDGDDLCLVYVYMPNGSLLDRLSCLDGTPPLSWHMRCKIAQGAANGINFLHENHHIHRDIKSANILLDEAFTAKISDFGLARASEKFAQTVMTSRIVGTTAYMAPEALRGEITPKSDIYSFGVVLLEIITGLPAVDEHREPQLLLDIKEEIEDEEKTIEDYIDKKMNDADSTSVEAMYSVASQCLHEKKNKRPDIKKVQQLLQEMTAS
# Test description: IRAK4 MSD degradation in OCI-LY10
# Assay type: cell-based
# Experimental setup: OCI-LY10, 4 hrs, MSD; read-out: IRAK4 MSD degradation in OCI-LY10 at 4 hrs: Average external-Abs DC50
Measurement name: DC50

[
  {
    "Compound": "C=C(C)c1nn([C@H]2CC[C@H](C(=O)N(C)CCCOCCCc3cccc4c3n(C)c(=O)n4C3CCC(=O)NC3=O)CC2)cc1NC(=O)c1coc(-c2ccnc(NCC3CC3)c2)n1 (some centres unmarked)",
    "DC50": "100 to 1000 nM"
  },
  {
    "Compound": "Cn1c(=O)n(C2CCC(=O)NC2=O)c2cccc(CCCOCC3CN(C[C@H]4CC[C@H](n5cc(NC(=O)c6coc(-c7ccnc(NCC8CC8)c7)n6)c(C(F)F)n5)CC4)C3)c21 (some centres unmarked)",
    "DC50": "< 10 nM"
  },
  {
    "Compound": "CN[C@@H](C)C(=O)N[C@H](C(=O)N1Cc2cc(OCCOCCOCCNC[C@H]3CC[C@H](n4cc(NC(=O)c5coc(-c6ccnc(NCC7CC7)c6)n5)c(C(F)F)n4)CC3)ccc2C[C@H]1C(=O)N[C@@H]1CCCc2ccccc21)C(C)(C)C",
    "DC50": "> 1000 nM"
  },
  {
    "Compound": "COc1cc(C(=O)NCCCCN(C)C[C@H]2CC[C@H](n3cc(NC(=O)c4coc(-c5ccnc(NCC6CC6)c5)n4)c(C(F)F)n3)CC2)ccc1NC(=O)[C@@H]1N[C@@H](CC(C)(C)C)[C@](C#N)(c2ccc(Cl)cc2F)[C@H]1c1cccc(Cl)c1F",
    "DC50": "> 1000 nM"
  }
]

Consider now this further compound.
Hello, please tell me recorded DC50 for this one: Cn1c(=O)n(C2CCC(=O)NC2=O)c2cccc(CCCCC3CCN(C(=O)c4ccc(-n5cc(NC(=O)c6cnn7ccc(N8C[C@H]9C[C@@H]8CO9)nc67)c(C(F)F)n5)cc4)CC3)c21 (some centres unmarked)
100 to 1000 nM

====

# Tested on: OCI-LY10
# Test description: CTG Cell Viability Assay - OCI-LY10
# Format: cell-based, human
# Experimental setup: Homo sapiens, OCI-Ly10, 96 h, OCI-LY10, 4 days; read-out: CTG Cell Viability Assay - OCI-LY10: Average external-IC50
Measurement name: IC50

Look over these answered cases.
[
  {
    "Molecule": "Cn1c(=O)n(C2CCC(=O)NC2=O)c2cccc(C#CCOC3CCN(C[C@H]4CC[C@H](n5cc(NC(=O)c6cnn7ccc(N8CCCOCC8)nc67)c(C(F)F)n5)CC4)CC3)c21 (some centres unmarked)",
    "IC50": "0.1 to 0.5 µM"
  },
  {
    "Molecule": "O=C1CCC(n2c3ccc(CCCOCCOCCNCC4CCC(n5cc(NC(=O)c6coc(-c7ccnc(NCC8CC8)c7)n6)c(C(F)F)n5)CC4)cc3c3cccnc32)C(=O)N1 (centres unmarked)",
    "IC50": "0.1 to 0.5 µM"
  },
  {
    "Molecule": "O=C1CCC(N2C(=O)c3cccc(NCCCOC[C@H]4CN(C[C@H]5CC[C@H](n6cc(NC(=O)c7cnn8ccc(N9CCOCC9)nc78)c(C(F)F)n6)CC5)CCO4)c3C2=O)C(=O)N1 (some centres unmarked)",
    "IC50": "0.1 to 0.5 µM"
  }
]

Hello, please tell me recorded IC50 for this one: CN1C(=O)CCC(N2Cc3c(OCc4ccc(CN5CCN(C[C@H]6CC[C@H](n7cc(NC(=O)c8cnn9ccc(N%10CCOCC%10)nc89)c(C(F)F)n7)CC6)CC5)cc4)cccc3C2=O)C1=O (some centres unmarked)
> 1 µM

Hello, please tell me recorded IC50 for this one: CN(CC1CCN(CCC#Cc2ccc3c(c2)n(C)c(=O)n3C2CCC(=O)NC2=O)CC1)C(=O)[C@H]1CC[C@H](n2cc(NC(=O)c3coc(-c4ccnc(NCC5CC5)c4)n3)c(C(F)F)n2)CC1 (some centres unmarked)
< 0.05 µM
